target-entity: mGluR5 receptor (Sus scrofa, UniProt I3LUI7)
Construct: 450 μg of protein from brain homogenate are incubated with 5 nM^3[H]-MPEP; from tissue; host or cells: pig brain hemispheres without medulla, cerebellum and pons
Sequence (I3LUI7 19-1212): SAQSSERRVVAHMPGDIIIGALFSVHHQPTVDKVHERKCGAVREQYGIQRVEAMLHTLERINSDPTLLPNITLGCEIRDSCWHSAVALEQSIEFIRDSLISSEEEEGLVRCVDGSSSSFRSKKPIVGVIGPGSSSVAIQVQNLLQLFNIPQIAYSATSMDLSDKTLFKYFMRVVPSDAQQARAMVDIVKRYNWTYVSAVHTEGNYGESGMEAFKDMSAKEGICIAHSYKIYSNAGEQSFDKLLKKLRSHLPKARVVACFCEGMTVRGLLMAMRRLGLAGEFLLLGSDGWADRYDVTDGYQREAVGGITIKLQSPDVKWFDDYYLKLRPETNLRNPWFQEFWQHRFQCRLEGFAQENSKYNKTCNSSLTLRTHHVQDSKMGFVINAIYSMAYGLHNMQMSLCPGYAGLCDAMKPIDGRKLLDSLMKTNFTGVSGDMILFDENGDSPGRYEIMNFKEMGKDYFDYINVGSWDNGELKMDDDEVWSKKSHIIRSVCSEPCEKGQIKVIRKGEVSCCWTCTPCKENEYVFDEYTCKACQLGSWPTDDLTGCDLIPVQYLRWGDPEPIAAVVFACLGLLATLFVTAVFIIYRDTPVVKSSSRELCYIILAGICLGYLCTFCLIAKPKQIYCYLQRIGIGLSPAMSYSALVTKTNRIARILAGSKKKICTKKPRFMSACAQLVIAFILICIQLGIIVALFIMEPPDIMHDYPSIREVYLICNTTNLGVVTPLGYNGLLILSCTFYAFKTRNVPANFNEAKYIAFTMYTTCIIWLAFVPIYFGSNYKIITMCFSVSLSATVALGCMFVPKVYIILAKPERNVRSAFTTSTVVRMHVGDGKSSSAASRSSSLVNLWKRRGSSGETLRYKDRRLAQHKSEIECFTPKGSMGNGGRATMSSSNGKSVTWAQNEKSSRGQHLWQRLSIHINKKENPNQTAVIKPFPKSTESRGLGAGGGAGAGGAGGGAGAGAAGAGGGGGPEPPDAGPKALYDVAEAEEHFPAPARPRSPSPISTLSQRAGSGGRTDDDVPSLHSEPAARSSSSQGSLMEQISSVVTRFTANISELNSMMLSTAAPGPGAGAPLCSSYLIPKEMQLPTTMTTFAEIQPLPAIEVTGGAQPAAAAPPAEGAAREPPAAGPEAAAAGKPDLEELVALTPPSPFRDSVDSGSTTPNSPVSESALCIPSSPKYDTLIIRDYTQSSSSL
test-method-notes: Affinity for the mGluR5 receptor: displacement of 3[H]-MPEP binding in pig brain homogenate
test-settings: 10 μM compound, 5 nM 3[H]-MPEP
experimental-endpoint: inhibition at 10 µM (%)
Your answer should be a plain number; it is taken to be in %.

# input If you can, please state the reported inhibition at 10 µM value of Cc1ccc2onc(NC(=O)c3ccccc3C)c2c1 .
# output 40.6

# input If you can, please state the reported inhibition at 10 µM value of Cc1ccc2onc(NC(=O)c3ccc(C#N)cc3)c2c1 .
# output 48.8

# input If you can, please state the reported inhibition at 10 µM value of COc1cccc(OC)c1C(=O)Nc1noc2ccc(Br)cc12 .
# output 41.5

# input If you can, please state the reported inhibition at 10 µM value of Cc1ccccc1C(=O)Nc1noc2c(F)cccc12 .
# output 43

# input If you can, please state the reported inhibition at 10 µM value of Nc1c(F)c(F)c2c(NC(=O)c3ccc(F)cc3F)noc2c1F .
# output 30.8

# input If you can, please state the reported inhibition at 10 µM value of CCC(C)C(=O)Nc1noc2ccccc12 (stereo not shown) .
# output 39.6

# input If you can, please state the reported inhibition at 10 µM value of O=C(Nc1noc2cccc(OCC(F)(F)F)c12)c1ccccc1Br .
# output 30.3

# input If you can, please state the reported inhibition at 10 µM value of CCC(C)C(=O)Nc1noc2cccc(Cl)c12 (stereo not shown) .
# output 30

# input If you can, please state the reported inhibition at 10 µM value of O=C(Nc1noc2ccccc12)c1ccc(C(F)(F)F)c(F)c1 .
# output 30

# input If you can, please state the reported inhibition at 10 µM value of COc1ccc(C(=O)Nc2noc3ccc(Br)cc23)cc1OC .
# output 31.2

# input If you can, please state the reported inhibition at 10 µM value of Nc1c(F)c(F)c2c(NC(=O)c3c(F)cccc3F)noc2c1F .
# output 36.1

# input If you can, please state the reported inhibition at 10 µM value of CCCC(C)C(=O)Nc1noc2cccc(OC)c12 (stereo not shown) .
# output 38.5

# input If you can, please state the reported inhibition at 10 µM value of O=C(Nc1noc2ccc(Br)cc12)c1ccc(F)cc1F .
# output 45.2

# input If you can, please state the reported inhibition at 10 µM value of Cc1ccc2onc(NC(=O)c3ccc(F)cc3)c2c1 .
# output 32.2

# input If you can, please state the reported inhibition at 10 µM value of O=C(Nc1noc2cccc(F)c12)c1ccccc1 .
# output 31.4

# input If you can, please state the reported inhibition at 10 µM value of CN(C)c1cccc2onc(NC(=O)c3cc(F)cc(C(F)(F)F)c3)c12 .
# output 36.8
